- Test summary: Fraction unbound in human plasma
- Type: ADME, cell-free
Reported endpoint: fraction unbound

Kindly indicate its recorded fraction unbound. Item: `C[C@@H]1CN(Cc2ccc3c(-c4cnn(C)c4)cc(C(N)=O)nc3c2)C[C@H](C(F)(F)F)O1`
0.025

###

- Target or test system: Voltage-dependent L-type calcium channel subunit alpha-1C (Homo sapiens)
- Sequence (Q13936 whole entry): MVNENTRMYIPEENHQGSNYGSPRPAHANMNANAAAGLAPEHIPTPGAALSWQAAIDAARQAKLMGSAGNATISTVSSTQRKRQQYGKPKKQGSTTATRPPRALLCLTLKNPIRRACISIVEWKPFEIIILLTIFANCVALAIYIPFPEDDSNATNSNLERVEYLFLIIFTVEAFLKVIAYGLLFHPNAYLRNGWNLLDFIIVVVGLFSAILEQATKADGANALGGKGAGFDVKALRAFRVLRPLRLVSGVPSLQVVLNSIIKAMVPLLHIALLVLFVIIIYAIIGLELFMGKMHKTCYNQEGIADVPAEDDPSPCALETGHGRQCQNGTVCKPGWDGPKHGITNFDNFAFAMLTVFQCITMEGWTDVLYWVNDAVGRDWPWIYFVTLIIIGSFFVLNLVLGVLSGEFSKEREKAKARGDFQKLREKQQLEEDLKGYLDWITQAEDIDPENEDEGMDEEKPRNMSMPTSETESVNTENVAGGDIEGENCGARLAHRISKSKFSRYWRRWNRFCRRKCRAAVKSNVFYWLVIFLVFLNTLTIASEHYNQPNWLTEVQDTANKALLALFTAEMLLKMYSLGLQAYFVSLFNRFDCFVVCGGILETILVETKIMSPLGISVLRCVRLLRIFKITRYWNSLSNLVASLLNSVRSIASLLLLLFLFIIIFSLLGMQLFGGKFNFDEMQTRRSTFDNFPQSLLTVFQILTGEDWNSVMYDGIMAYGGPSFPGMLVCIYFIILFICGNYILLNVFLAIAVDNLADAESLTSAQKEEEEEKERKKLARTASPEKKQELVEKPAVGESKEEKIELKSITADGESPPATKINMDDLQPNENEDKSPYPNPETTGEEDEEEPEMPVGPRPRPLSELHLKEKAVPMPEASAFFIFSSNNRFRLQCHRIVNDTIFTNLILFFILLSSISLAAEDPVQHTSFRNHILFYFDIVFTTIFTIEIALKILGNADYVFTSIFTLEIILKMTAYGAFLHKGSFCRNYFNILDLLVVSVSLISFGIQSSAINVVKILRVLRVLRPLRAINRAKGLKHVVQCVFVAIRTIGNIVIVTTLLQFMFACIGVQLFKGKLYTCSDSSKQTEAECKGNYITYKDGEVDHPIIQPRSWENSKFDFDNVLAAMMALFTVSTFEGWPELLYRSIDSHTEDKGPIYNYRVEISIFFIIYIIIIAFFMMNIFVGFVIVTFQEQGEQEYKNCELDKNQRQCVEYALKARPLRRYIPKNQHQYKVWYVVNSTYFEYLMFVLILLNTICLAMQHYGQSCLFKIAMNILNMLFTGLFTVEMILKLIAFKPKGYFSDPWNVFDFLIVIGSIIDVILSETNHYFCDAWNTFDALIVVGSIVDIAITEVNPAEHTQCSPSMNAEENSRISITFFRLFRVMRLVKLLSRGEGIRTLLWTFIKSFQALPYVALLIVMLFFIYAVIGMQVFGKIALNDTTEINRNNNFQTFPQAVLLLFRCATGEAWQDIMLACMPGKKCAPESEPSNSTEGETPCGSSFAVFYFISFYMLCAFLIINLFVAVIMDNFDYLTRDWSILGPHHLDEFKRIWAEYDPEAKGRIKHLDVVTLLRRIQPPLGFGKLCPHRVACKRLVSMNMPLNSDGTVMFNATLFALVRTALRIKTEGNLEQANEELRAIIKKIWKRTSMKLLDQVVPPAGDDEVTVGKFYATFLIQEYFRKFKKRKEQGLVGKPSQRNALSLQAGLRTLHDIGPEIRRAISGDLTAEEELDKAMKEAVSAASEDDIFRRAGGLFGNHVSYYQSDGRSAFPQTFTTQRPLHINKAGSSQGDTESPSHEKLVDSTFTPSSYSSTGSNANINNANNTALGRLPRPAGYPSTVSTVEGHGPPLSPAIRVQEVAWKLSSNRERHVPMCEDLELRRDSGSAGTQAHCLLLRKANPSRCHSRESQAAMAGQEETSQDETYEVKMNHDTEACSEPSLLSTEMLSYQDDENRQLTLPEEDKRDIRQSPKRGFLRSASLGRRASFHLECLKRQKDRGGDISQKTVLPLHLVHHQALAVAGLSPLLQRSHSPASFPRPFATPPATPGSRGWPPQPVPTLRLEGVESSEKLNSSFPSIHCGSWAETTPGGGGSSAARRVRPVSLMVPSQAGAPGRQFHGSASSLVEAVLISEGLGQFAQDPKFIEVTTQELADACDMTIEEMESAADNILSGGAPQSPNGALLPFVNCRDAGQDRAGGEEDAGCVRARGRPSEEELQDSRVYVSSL
- Test summary: Inhibition of Cav1.2 (unknown origin)
Reported endpoint: IC50 (µM)
// note: answer is a bare numeric in µM

Kindly indicate its recorded IC50. Item: `Cn1cc(-c2cc(C(N)=O)nc3cc(CN4CCO[C@@H](C(F)(F)F)C4)ccc23)cn1`
22

###

- Test summary: Volume of distribution in dog at 0.25 mg/kg, iv
- Type: ADME, organism-based, Canis lupus familiaris
- Applied conditions: in vivo
Reported endpoint: Vd

Kindly indicate its recorded Vd. Item: `C[C@@H]1CN(Cc2ccc3c(-c4cnn(C)c4)cc(C(N)=O)nc3c2)C[C@H](C(F)(F)F)O1`
7.3 L/kg

###

- Target or test system: UniProtKB Q13255
- Sequence (Q13255 whole entry): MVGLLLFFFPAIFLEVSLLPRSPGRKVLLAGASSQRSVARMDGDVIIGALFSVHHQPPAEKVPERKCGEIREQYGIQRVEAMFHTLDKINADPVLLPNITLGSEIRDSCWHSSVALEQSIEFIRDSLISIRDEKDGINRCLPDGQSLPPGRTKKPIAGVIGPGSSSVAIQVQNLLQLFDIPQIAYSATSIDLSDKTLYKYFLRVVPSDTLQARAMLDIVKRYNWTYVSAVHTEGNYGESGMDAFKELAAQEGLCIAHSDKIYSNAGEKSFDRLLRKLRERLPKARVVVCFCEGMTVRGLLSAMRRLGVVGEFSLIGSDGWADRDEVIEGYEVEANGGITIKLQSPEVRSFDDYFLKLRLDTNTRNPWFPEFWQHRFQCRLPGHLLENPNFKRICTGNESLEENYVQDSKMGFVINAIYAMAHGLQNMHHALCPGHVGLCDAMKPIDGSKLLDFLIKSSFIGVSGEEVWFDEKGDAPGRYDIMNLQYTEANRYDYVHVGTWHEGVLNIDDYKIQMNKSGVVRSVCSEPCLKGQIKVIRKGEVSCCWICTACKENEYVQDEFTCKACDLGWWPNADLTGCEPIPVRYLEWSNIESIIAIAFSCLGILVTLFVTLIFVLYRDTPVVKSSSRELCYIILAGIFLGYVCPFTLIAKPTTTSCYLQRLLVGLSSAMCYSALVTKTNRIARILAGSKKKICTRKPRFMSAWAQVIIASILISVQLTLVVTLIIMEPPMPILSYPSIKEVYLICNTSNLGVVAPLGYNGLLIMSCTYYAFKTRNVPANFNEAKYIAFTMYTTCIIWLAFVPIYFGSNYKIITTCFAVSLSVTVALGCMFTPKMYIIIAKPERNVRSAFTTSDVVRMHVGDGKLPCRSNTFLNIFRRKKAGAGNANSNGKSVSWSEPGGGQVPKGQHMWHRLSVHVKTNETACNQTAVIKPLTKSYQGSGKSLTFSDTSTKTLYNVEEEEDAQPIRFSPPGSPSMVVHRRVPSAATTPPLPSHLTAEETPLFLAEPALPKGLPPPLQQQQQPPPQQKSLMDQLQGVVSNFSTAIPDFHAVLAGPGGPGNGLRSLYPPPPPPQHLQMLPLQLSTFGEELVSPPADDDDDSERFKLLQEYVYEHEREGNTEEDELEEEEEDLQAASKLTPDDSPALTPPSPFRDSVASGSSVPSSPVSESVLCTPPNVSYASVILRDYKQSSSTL
- Test summary: Negative allosteric modulation at mGluR1 receptor (unknown origin) assessed as effect on intracellular calcium flux measured after 5 min by Fluo-4AM dye based FLIPR analysis
Reported endpoint: IC50

Kindly indicate its recorded IC50. Item: `C[C@@H]1CN(Cc2ccc3c(-c4cnn(C)c4)cc(C(N)=O)nc3c2)C[C@H](C(F)(F)F)O1`
> 10 µM

###

- Test summary: Solubility of the compound at pH 7
- Assay type: physicochemical
- Applied conditions: buffer, read-out: solubility
Below, each entry is listed with its recorded solubility.
// note: answer is a bare numeric in µM

Example results:
>>> print(df.to_string())
                                   compound  reported_endpoint  readout_number
0  Cc1ccn(-c2cc(C(N)=O)nc3cc(CN4C(=O)CCC4=O)ccc23)n1         solubility              46
1  Cn1cc(Cc2ccc3c(-c4ccc(F)cc4)cc(C(N)=O)nc3c2)cn1         solubility               4
2  Cc1ncc(CCc2ccc3c(-c4cnn(C)c4)cc(C(N)=O)nc3c2)cn1         solubility             141
3  CC(C)C1CN(Cc2ccc3c(-c4cnn(C)c4)cc(C(N)=O)nc3c2)CCO1 (racemic)         solubility             142
4  Cn1cc(-c2cc(C(N)=O)nc3cc(CN4C(=O)CCC4=O)ccc23)cn1         solubility             162

Kindly indicate its recorded solubility. Item: `NC(=O)c1cc(-c2ccc(F)cc2)c2ccc(CN3CCOC3=O)cc2n1`
127

Kindly indicate its recorded solubility. Item: `CCn1cc(-c2cc(C(N)=O)nc3cc(CN4C(=O)CCC4=O)ccc23)cn1`
150

Kindly indicate its recorded solubility. Item: `NC(=O)c1cc(N2CCOCC2)c2ccc(CN3C(=O)CCC3=O)cc2n1`
157

Kindly indicate its recorded solubility. Item: Cn1cc(-c2cc(C(N)=O)nc3cc(CN4CCOC(C5CC5)C4)ccc23)cn1 (racemic)
175

###

- Test summary: Solubility of the compound at pH 7
- Assay type: physicochemical
- Applied conditions: buffer, read-out: solubility
Reported endpoint: solubility (µM)
// note: answer is a bare numeric in µM

                                   compound  unit_spec  readout_number
0  Cn1cc(-c2cc(C(N)=O)nc3cc(CN4CCOC(C(F)(F)F)C4)ccc23)cn1 (racemic)         µM             132
1  Cc1cnn(-c2cc(C(N)=O)nc3cc(CN4C(=O)CCC4=O)ccc23)c1         µM              99

Let's switch to this compound now.
Kindly indicate its recorded solubility. Item: NC(=O)c1cc(-c2ccc(F)cc2)c2ccc(CN3CCNC(C(F)(F)F)C3)cc2n1 (racemic)
105
